system: Yellow Fever Mosquito (Aedes aegypti, AEDSAE) ("YFM"); assay type: in vivo; conditions: about 1 day-old larvae, 4000 ppm master solution diluted, 3 days, room temperature
observed_property: YFM % Control (or Mortality) rating

COc1ccccc1-c1cccc(C(=O)Nc2ccc(-c3ncn(-c4ccc(C(F)(F)F)cc4)n3)cc2)c1 [F60] : A (80-100)
COc1ccccc1-c1cc(C(=O)Nc2ccc(-c3ncn(-c4ccc(C(F)(F)F)cc4)n3)cc2)ccc1F [F20] : A (80-100)

###

system: Yellow Fever Mosquito (Aedes aegypti, AEDSAE) ("YFM"); type: in vivo; details: about 1 day-old larvae, 4000 ppm master solution diluted, 3 days, room temperature
observed_property: YFM % Control (or Mortality) rating

Cc1ccccc1-c1cc(C(=O)NCCc2ccc(-c3ncn(-c4ccc(OC(F)(F)F)cc4)n3)cc2)ccc1F : A (80-100)
CC(=O)c1ccccc1-c1cccc(C(=O)Nc2ccc(-c3ncn(-c4ccc(OC(F)(F)F)cc4)n3)cc2)c1 : A (80-100)
